Hi there, I'd appreciate the recorded melting point for every entry that follows.

Cc1ccc(C(=O)NCC(O)CO)cc1-n1c(C)cc(OCc2ccccc2CNC(=O)Nc2cc(C(C)(C)C)nn2-c2ccc(Cl)c(O)c2)c(Cl)c1=O (configuration not stated)
169 to 171 °C
O=C(Nc1ccc(Oc2ccc(CCC(=O)N3CCN(Cc4ccc5c(c4)OCO5)CC3)cc2)nc1)c1ccc(C(F)(F)F)cc1
140 to 141 °C
CCc1nn(-c2ccc(F)cc2)c2cc(C(=O)O)ccc12
204 to 205 °C
C=CCn1c(=O)c2c(nc(/C=C/c3cc(OC)c(O)c(OC)c3)n2C)n(CC=C)c1=O
239 to 240 °C
COc1ncccc1Nc1c(NC(NC(=O)c2ccc(Cl)cc2)C(C)(C)C)c(=O)c1=O (configuration not stated)
239 to 241 °C
Cn1cccc1-c1nc2cc(Cl)cc(CCc3ccccn3)c2o1
100 to 101 °C

Hi, could you look up melting point for each item in my list?
1. Brc1cc2c(nc1-c1ccccc1)OCC2
2. CCCN(CCCCNC(=O)N1CCN(c2ccccc2)CC1)C1CCc2ncsc2C1 (configuration not stated)
3. CCOC(C)C(=O)c1cc(C(C)(C)C)c(O)c(C(C)(C)C)c1 (configuration not stated)

Found:
83.5 to 85.5 °C
120 °C
64 °C

Hi, could you look up melting point for each item in my list?
1. NC(=NO)c1c(C(F)(F)F)ccc(F)c1F
2. CNC(=O)C1CCNc2ccccc21 (configuration not stated)
3. FC(F)(F)Oc1ccc(-n2ccc(CBr)n2)cc1

Found:
114 to 115 °C
107 °C
71 to 73 °C

* * *

Experimental Readout: melting point

Illustrative cases are given below, each with its answer.
CC(CCCc1ccccc1)Oc1cc(O)c2c(c1)NCCC2=O (centres undefined)
88 to 90 °C
COc1ccc(SCc2oc(=O)oc2C)cc1
59 to 61 °C
Cc1ccc(Cn2nc(CCCc3ccc(OC(C)(C)C(=O)O)cc3)[nH]c2=O)cc1C
146 to 150 °C

Now examine the next entry.
Lookup: Please report the recorded melting point for CC(C)(C)C(=O)Nc1ccc(Br)cn1 .
Found: 57 to 59 °C

* * *

Hi there, I'd appreciate the recorded melting point for every entry that follows.

Hi, could you look up melting point for each item in my list?
1. CCc1cccc(C)c1CNc1cc(C(=O)N(C)C)cc2c1nc(COC)n2C
2. N#CC(C(=O)NC1CC1)C(=O)C1CC1 (centres undefined)
3. NC(=O)NCc1c[nH]c(=S)n1[C@H]1CCc2c(F)cc(F)cc2C1
4. CC(=O)Nc1ccc(Sc2ccc(F)cc2)cc1
5. CCCc1c(OCCCCCOc2ccc(-c3cc4ccccc4c(=O)o3)cc2CCC(=O)OCC)ccc2c1OCCC2=O
6. NC(=O)c1ccc(F)c2c1OCC=C2
7. c1ccc(N2CCN(CCc3nc4ccccc4[nH]3)CC2)cc1

Found:
1. 154 °C
2. 136 to 138 °C
3. 258 to 260 °C
4. 140 to 141 °C
5. 144 °C
6. 152 to 154 °C
7. 201 to 203 °C

Hi, could you look up melting point for each item in my list?
1. CCOC(=O)C1=C[C@@H](OC(CC)CC)[C@@H](NC(C)=O)[C@H](N=[N+]=[N-])[C@@H]1OS(C)(=O)=O
2. C#CCN1CCCc2ccc(OC(=O)Nc3ccccc3C)cc21
3. CCCCc1nn(-c2cc(NC(=O)CC)ccc2C(F)(F)F)c(=O)n1Cc1ccc(-c2ccccc2S(=O)(=O)NC(=O)c2ccccc2Cl)cc1F
4. Cc1coc2c1C(=O)CC(c1cccc(Cl)c1Cl)C2 (centres undefined)
5. CCOCc1nc2c(N)nc3cccnc3c2n1Cc1ccccc1

Found:
1: 96 to 98 °C; 2: 96 °C; 3: 181 to 183 °C; 4: 116 to 117 °C; 5: 173 to 174 °C
